Can you tell me selectivity ratio for the items I'm about to list?
experimental.details: Selectivity index, ratio of CC50 for cytotoxicity against human MT4 cells to EC50 for antiviral activity against HIV1 IIIB infected in human MT4 cells
Assay type: toxicity, cell-based
measurement.context: read-out: Ratio CC50/EC50
Give bare numbers.

Give selectivity ratio for each of the items listed below.
1. COc1ccc(N(C)C(=O)[C@H](Cc2ccccc2)NC(=O)Cn2ccc(NC(=O)c3ccc(C)cc3)cc2=O)cc1
2. COc1ccc(N(C)C(=O)[C@H](Cc2ccccc2)NC(=O)Cn2ccc(NC(=O)c3cccc(F)c3)cc2=O)cc1
3. COc1ccc(N(C)C(=O)[C@H](Cc2cc(F)cc(F)c2)NC(=O)CN2CCN(S(=O)(=O)c3ccc([N+](=O)[O-])cc3)CC2)cc1
4. COc1ccc(-n2c(SCCCN3CCOCC3)nnc2[C@H](Cc2ccccc2)NC(=O)Cc2c(C)[nH]c3ccccc23)cc1
5. COc1ccc(-n2c(SCc3ccccn3)nnc2[C@H](Cc2ccccc2)NC(=O)Cc2c(C)[nH]c3ccccc23)cc1

2.28
3.26
14.7
83
9

Field: selectivity ratio. Fill in for each record below.
1. C#CCSc1nnc([C@H](Cc2ccccc2)NC(=O)Cc2c(C)[nH]c3ccccc23)n1-c1ccc(OC)cc1
2. COc1ccc(N(C)C(=O)[C@H](Cc2cc(F)cc(F)c2)NC(=O)CN(CC2CCCCC2)C(=O)Cn2nc(C(F)(F)F)cc2C)cc1

1: 12; 2: 2

====

experimental.details: Cytotoxicity against human MT4 cells assessed as reduction in cell viability
Assay type: toxicity, cell-based
I'd appreciate it if you could supply CC50 values for the items below.
Give bare numbers, in µM.

Before answering, review these 2 worked examples.
COc1ccc(N(C)C(=O)[C@H](Cc2cc(F)cc(F)c2)NC(=O)CN2CCN(S(=O)(=O)c3ccccc3)CC2)cc1: 114
COc1ccc(N(C)C(=O)[C@H](Cc2cc(F)cc(F)c2)NC(=O)CN2CCN(S(=O)(=O)c3ccc([N+](=O)[O-])cc3)CC2)cc1: 14.8

Value of measured CC50 for the entry COc1ccc(N(C)C(=O)[C@H](Cc2cc(F)cc(F)c2)NC(=O)CN2CCN(S(=O)(=O)c3ccc(F)cc3)CC2)cc1 : 19.2

====

experimental.details: Selectivity index, ratio of CC50 for cytotoxicity against human MT4 cells to EC50 for antiviral activity against HIV1 IIIB infected in human MT4 cells
Type: toxicity, cell-based
measurement.context: read-out: Ratio CC50/EC50
parameter.measured: selectivity ratio
One number for each entry.

Here is how some compounds turned out for selectivity ratio.
COc1ccc(-n2c(SCCF)nnc2[C@H](Cc2ccccc2)NC(=O)Cc2c(C)[nH]c3ccccc23)cc1: 20
COc1ccc(N(C)C(=O)[C@H](Cc2cc(F)cc(F)c2)NC(=O)CN2CCN(S(=O)(=O)c3ccccc3)CC2)cc1: 570

Now look at this one.
// COc1ccc(-n2c(SCC(F)F)nnc2[C@H](Cc2ccccc2)NC(=O)Cc2c(C)[nH]c3ccccc23)cc1 : selectivity ratio value = 10

====

experimental.details: Selectivity ratio of EC50 for antiviral activity against HIV1 IIIB infected in human MT4 cells to EC50 for antiviral activity against HIV2 ROD infected in human MT4 cells
Assay type: toxicity, cell-based
Assignment: determine reported Ratio EC50 for the given compounds.

Guide cases for Ratio EC50, answers given:
COc1ccc(N(C)C(=O)[C@H](Cc2ccccc2)NC(=O)Cn2ccc(NC(=O)c3cccc(F)c3)cc2=O)cc1: 2.87
COc1ccc(N(C)C(=O)[C@H](Cc2cc(F)cc(F)c2)NC(=O)CN(CC2CCCCC2)C(=O)Cn2nc(C(F)(F)F)cc2C)cc1: 1.22

Note to self: Ratio EC50 recorded for COc1ccc(N(C)C(=O)[C@H](Cc2ccccc2)NC(=O)CN2CCN(C(=O)Cc3c[nH]c4ccc(OC)cc34)CC2=O)cc1 was 0.86
